Data origin: patent US20140045856A1

assay: Animal experiments and sample analysis: plasma, brain and CSF concentration; type: in vivo; settings: plasma; rat; 2 h between administration and CSF sampling; doses of 10.0 or 5 μmol/kg; read-out: conc plasma
Measurement Label: concentration at 2 h (µM)
All answers are understood in µM, so give the number only.

Compound: Cc1nc2cccnc2n2c(-c3cc(C(C)(C)O)ccc3Cl)nnc12 [Example 70]
Measurement Label: concentration at 2 h
Quantity Unit: µM
Numeric Readout: 2.38
--
Compound: Cc1nc2cccnc2n2c(-c3cc(OCC4(O)CCC4)ccc3Cl)nnc12 [Example 49]
Measurement Label: concentration at 2 h
Quantity Unit: µM
Numeric Readout: 0.239
--
Compound: Cc1nc2cccnc2n2c(-c3cc(CCC(C)(C)O)ccc3Cl)nnc12 [Example 64]
Measurement Label: concentration at 2 h
Quantity Unit: µM
Numeric Readout: 0.783
--
Compound: Cc1nc2ccc(C3CC3)nc2n2c(-c3cc(C(C)(C)O)ccc3F)nnc12 [Example 76]
Measurement Label: concentration at 2 h
Quantity Unit: µM
Numeric Readout: 0.463
--
Compound: Cc1nc2ccc(C3CC3)nc2n2c(-c3cc(OCC(C)(C)O)ccc3Cl)nnc12 [Example 45]
Measurement Label: concentration at 2 h
Quantity Unit: µM
Numeric Readout: 0.801

Report concentration at 2 h, nothing else, for this compound: Cc1ccc(C(C)(C)O)cc1-c1nnc2c(C)nc3ccc(C4CC4)nc3n12 [Example 75]
1.13

Report concentration at 2 h for Cc1nc2ccc(C3CC3)nc2n2c(-c3cc(OCC(C)(C)O)ccc3F)nnc12 [Example 47]
0.622

====

Measured IC50, listed per entry.
target: PDE2A (Homo sapiens); experiment: PDE 2A assay with fluorescent substrate (IMAP, fluorescence polarization); format: biochemical; details: read-out: PDE2 IC50
Give just the numeric value; nM need not be written.

Molecule: Cc1ccc(C(C)(C)CO)cc1-c1nnc2c(C)nc3ccc(C4CC4)nc3n12
System Name: PDE2A (Homo sapiens)
IC50, nM: 17
//
Molecule: CCC(O)c1ccc(Cl)c(-c2nnc3c(C)nc4ccc(C)nc4n23)c1 (centres unmarked)
System Name: PDE2A (Homo sapiens)
IC50, nM: 11
//
Molecule: Cc1nc2ccc(C3CC3)nc2n2c(-c3cc(C4(O)CCC4)ccc3F)nnc12
System Name: PDE2A (Homo sapiens)
IC50, nM: 6
//
Molecule: Cc1nc2ccc(C3CC3)nc2n2c(-c3cc(OC4CCOCC4O)ccc3Cl)nnc12 (single isomer, unassigned) [Example 109c]
System Name: PDE2A (Homo sapiens)
IC50, nM: 9

Report measured IC50; entry is Cc1ccc(O)cc1-c1nnc2c(C)nc3ccc(C(C)C)nc3n12
3

Fill in IC50 for record Cc1nc2ccc(C(C)C)nc2n2c(-c3cc(O)ccc3F)nnc12
2

Give the reported value of IC50 for this record: Cc1ccc(CCC(C)(C)O)cc1-c1nnc2c(C)nc3ccc(C4CC4)nc3n12
2

Return the recorded IC50 value; entry: Cc1nc2ccc(C(F)(F)F)nc2n2c(-c3cc(C4(O)CCOCC4)ccc3Cl)nnc12
43

====

target: PDE10 (Homo sapiens, UniProt Q9Y233)
Sequence (Q9Y233 whole entry, species assumed): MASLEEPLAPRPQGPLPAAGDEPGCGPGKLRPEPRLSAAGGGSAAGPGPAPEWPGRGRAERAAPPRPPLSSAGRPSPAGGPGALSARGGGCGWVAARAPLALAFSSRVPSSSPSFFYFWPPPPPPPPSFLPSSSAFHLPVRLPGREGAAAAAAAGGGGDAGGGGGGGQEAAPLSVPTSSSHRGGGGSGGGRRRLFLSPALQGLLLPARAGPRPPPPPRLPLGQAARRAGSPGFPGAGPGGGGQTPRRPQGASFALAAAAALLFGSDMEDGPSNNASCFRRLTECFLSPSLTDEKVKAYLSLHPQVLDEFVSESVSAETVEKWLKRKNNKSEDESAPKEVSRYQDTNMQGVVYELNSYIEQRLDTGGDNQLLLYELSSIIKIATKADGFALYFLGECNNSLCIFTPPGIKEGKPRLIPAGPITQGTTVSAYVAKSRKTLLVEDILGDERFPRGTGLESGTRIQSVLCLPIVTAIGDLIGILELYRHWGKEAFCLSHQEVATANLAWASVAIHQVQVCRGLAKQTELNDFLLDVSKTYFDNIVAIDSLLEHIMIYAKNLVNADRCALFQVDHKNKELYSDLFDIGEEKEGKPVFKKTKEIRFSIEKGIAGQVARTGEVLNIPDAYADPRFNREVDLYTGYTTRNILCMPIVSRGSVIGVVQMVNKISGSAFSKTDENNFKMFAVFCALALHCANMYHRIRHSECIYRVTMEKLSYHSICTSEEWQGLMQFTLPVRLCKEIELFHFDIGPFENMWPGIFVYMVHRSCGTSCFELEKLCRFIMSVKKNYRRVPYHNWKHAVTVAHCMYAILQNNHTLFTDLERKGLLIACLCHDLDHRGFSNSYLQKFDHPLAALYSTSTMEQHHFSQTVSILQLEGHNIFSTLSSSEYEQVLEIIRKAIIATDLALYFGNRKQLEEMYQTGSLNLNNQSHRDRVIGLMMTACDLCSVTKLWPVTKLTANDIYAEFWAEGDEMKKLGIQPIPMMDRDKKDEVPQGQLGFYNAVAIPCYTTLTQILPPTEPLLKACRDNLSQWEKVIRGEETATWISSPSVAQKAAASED
Let's look at some molecules and their measured IC50.
Write it as a number; the unit µM goes unstated.

// below: answered molecules
Molecule: Cc1nc2ccc(C(F)(F)F)nc2n2c(-c3cc(C(C)(C)O)ccc3F)nnc12 [Example 103c]
IC50, µM: 7980
--
Molecule: Cc1nc2cccnc2n2c(-c3cc(OCCCO)ccc3Cl)nnc12
IC50, µM: 6.36

Please turn your attention to the following entry.
Report IC50 under test system PDE10 (Homo sapiens, UniProt Q9Y233) for Cc1nc2cccnc2n2c(-c3cc(C4(O)CCOCC4)ccc3Cl)nnc12 .
6.11

====

Here's a batch of compounds along with measured IC50 for UniProt:Q9Y233.
# value in µM; strip the unit string

Please review the entries below; each comes with its answer.
Compound: Cc1nc2ccc(C3CC3)nc2n2c(-c3cc(C4(O)CCOC4)ccc3Cl)nnc12 (single isomer, unassigned) [Example 97b]
Quantity Unit: µM
Numeric Readout: 0.891
//
Compound: Cc1ccc2nc(C)c3nnc(-c4cc(CO)ccc4Cl)n3c2n1 [Example 60]
Quantity Unit: µM
Numeric Readout: 0.285
//
Compound: Cc1nc2ccc(C3CC3)nc2n2c(-c3cc(OC4CCOCC4O)ccc3F)nnc12 (single isomer, unassigned) [Example 108d]
Quantity Unit: µM
Numeric Readout: 0.63
//
Compound: Cc1nc2cccnc2n2c(-c3cc(CC(C)(C)O)ccc3Cl)nnc12 [Example 82]
Quantity Unit: µM
Numeric Readout: 5.62
//
Compound: Cc1nc2ccc(C(F)(F)F)nc2n2c(-c3cc(OC4COCC4O)ccc3F)nnc12 (single isomer, unassigned) [Example 106b]
Quantity Unit: µM
Numeric Readout: 2.5
//
Compound: Cc1nc2cccnc2n2c(-c3cc(OCC4(O)CC4)ccc3Cl)nnc12 [Example 43a]
Quantity Unit: µM
Numeric Readout: 4.51

Identify measured IC50 obtained with UniProt:Q9Y233 for Cc1nc2ccc(C(F)(F)F)nc2n2c(-c3cc(OC4COCC4O)ccc3F)nnc12 (single isomer, unassigned) [Example 106a] .
1.41

====

biological target: PDE2A (Homo sapiens, UniProt O00408); test: PDE 2A assay with fluorescent substrate (IMAP, fluorescence polarization); format: biochemical; details: read-out: PDE2 IC50
Sequence (O00408 whole entry, species assumed): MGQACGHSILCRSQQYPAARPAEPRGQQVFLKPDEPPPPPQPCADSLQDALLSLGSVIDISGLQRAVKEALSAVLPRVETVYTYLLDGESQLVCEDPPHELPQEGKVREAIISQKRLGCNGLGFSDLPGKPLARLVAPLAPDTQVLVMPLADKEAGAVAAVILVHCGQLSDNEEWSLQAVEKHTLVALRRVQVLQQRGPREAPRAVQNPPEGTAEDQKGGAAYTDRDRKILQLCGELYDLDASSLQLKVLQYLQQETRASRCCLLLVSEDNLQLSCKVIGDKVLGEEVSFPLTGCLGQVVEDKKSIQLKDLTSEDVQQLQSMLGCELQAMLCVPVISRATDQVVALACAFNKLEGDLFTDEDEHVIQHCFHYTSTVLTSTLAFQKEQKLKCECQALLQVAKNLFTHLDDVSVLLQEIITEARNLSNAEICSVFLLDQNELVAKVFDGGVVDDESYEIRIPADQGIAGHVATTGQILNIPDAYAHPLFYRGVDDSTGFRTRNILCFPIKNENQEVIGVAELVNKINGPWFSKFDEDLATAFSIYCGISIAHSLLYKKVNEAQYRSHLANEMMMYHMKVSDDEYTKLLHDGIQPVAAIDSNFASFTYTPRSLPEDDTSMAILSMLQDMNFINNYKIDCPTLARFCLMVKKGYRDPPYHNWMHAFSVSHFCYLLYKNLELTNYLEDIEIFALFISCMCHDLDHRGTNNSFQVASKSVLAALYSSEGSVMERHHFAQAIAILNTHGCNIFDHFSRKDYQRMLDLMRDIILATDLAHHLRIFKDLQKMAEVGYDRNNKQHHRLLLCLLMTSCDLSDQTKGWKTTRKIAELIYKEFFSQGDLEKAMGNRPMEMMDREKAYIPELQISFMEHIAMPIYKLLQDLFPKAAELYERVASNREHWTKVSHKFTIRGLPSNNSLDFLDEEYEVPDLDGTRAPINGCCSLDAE
Measurement Label: log10 of IC50 (log10 of the value in nM)
All values: log10 IC50 [nM].

The cases that follow already have their log10 of IC50 on record.
Molecule: Cc1nc2ccc(C3CC3)nc2n2c(-c3cc(C(C)(C)O)ccc3F)nnc12 [Example 76]
Numeric Readout: 1.32
--
Molecule: Cc1nc2cccnc2n2c(-c3cc(O[C@@H]4CCOC4)ccc3Cl)nnc12 [Example 23]
Numeric Readout: 2.33
--
Molecule: Cc1nc2ccc(C3CC3)nc2n2c(-c3cc(CCC(C)(C)O)ccc3F)nnc12 [Example 66]
Numeric Readout: 0.48
--
Molecule: Cc1ccc2nc(C)c3nnc(-c4cc(C5(O)CCC5)ccc4C)n3c2n1 [Example 102]
Numeric Readout: 2.01
--
Molecule: Cc1ccc(C2(O)CCOCC2)cc1-c1nnc2c(C)nc3ccc(C4CC4)nc3n12 [Example 103]
Numeric Readout: 0.48

Now consider a different molecule.
Respond only with log10 of IC50 recorded for Cc1nc2ccc(C3CC3)nc2n2c(-c3cc(C(C)(C)O)ccc3Cl)nnc12 [Example 85]
0.78

====

molecular target: PDE 10A (Homo sapiens)
Sequence (Q9Y233 whole entry, species assumed): as the sequence (Q9Y233 whole entry, species assumed) above
Measurement Label: pIC50
Keep it numeric: pIC50 is minus log10 of the concentration in mol/L.

Use these answered entries as a reference point.
Compound: COCCCOc1ccc(Cl)c(-c2nnc3c(C)nc4ccc(C)nc4n23)c1 [Example 31]
pIC50: 5.72
--
Compound: Cc1nc2cccnc2n2c(-c3cc(O)ccc3F)nnc12 [Example 4]
pIC50: 6.36
--
Compound: Cc1nc2cccnc2n2c(-c3cc(OCC4CCOC4)ccc3Cl)nnc12 (stereo not shown) [Example 25]
pIC50: 5.49
--
Compound: Cc1nc2cccnc2n2c(-c3cc(OCCC(C)O)ccc3Cl)nnc12 (stereo not shown) [Example 19]
pIC50: 5.52
--
Compound: Cc1ccc2nc(C)c3nnc(-c4cccc(O)c4)n3c2n1 [Example 3]
pIC50: 6.39
--
Compound: Cc1nc2cccnc2n2c(-c3cc(OCCCO)ccc3Cl)nnc12 [Example 13]
pIC50: 5.66

Determine reported pIC50 for Cc1nc2cccnc2n2c(-c3cc(OC4CCC(O)CC4)ccc3Cl)nnc12 (stereo not shown) [Example 39] ; test system: PDE 10A (Homo sapiens).
5.68

Provide measured pIC50 on PDE 10A (Homo sapiens) for Cc1ccc2nc(C)c3nnc(-c4cc(OC5CCC(F)(F)CC5)ccc4Cl)n3c2n1 [Example 30] please.
5.41

Tell me its pIC50 on PDE 10A (Homo sapiens): COCCOc1ccc(Cl)c(-c2nnc3c(C)nc4ccc(C)nc4n23)c1 [Example 29]
5.62

Lab note: record pIC50 of Cc1ccc2nc(C)c3nnc(-c4cc(O)ccc4Cl)n3c2n1 [Example 2] tested on PDE 10A (Homo sapiens).
7.40

====

biological target: PDE2A (Homo sapiens, UniProt O00408); experiment: PDE 2A assay with fluorescent substrate (IMAP, fluorescence polarization); format: biochemical; conditions: read-out: PDE2 IC50
# label = rule met if IC50 < 8 nM else rule not met

Consider the worked cases shown below.
Compound: Cc1ccc(CCC(C)(C)O)cc1-c1nnc2c(C)nc3cccnc3n12
System Name: PDE2A (Homo sapiens, UniProt O00408)
Label Value: rule not met
--
Compound: Cc1ccc(C(C)(C)O)cc1-c1nnc2c(C)nc3ccc(C(C)C)nc3n12
System Name: PDE2A (Homo sapiens, UniProt O00408)
Label Value: rule not met
--
Compound: Cc1nc2cccnc2n2c(-c3cc(OCC(C)(C)O)ccc3Cl)nnc12
System Name: PDE2A (Homo sapiens, UniProt O00408)
Label Value: rule not met
--
Compound: Cc1nc2cccnc2n2c(-c3cc(OC4COCCC4O)ccc3Cl)nnc12 (single isomer, unassigned)
System Name: PDE2A (Homo sapiens, UniProt O00408)
Label Value: rule not met
--
Compound: Cc1nc2ccc(C(F)(F)F)nc2n2c(-c3cc(O)ccc3Cl)nnc12
System Name: PDE2A (Homo sapiens, UniProt O00408)
Label Value: rule not met
--
Compound: Cc1nc2ccc(C3CC3)nc2n2c(-c3cc(C4(O)CCOCC4)ccc3Cl)nnc12
System Name: PDE2A (Homo sapiens, UniProt O00408)
Label Value: rule met

Strictly below 8 nM in IC50? Cc1nc2ccc(C3CC3)nc2n2c(-c3cc(C4(O)CCOCC4)ccc3F)nnc12
rule met

Record Cc1ccc2nc(C)c3nnc(-c4cc(O)ccc4Cl)n3c2n1 : is its IC50 strictly below 8 nM?
rule met
